pKi: −log10 of the molar value.
outcome.measure: pKi

*Q* Param readout = pKi; param system = H1R (Homo sapiens, UniProt P35367); param query = CCCN(CCCCC(=O)Nc1nc2c(OC)ccc(OC)c2s1)C1Cc2ccccc2C1 ; response: value
Sequence (P35367 whole entry, species assumed): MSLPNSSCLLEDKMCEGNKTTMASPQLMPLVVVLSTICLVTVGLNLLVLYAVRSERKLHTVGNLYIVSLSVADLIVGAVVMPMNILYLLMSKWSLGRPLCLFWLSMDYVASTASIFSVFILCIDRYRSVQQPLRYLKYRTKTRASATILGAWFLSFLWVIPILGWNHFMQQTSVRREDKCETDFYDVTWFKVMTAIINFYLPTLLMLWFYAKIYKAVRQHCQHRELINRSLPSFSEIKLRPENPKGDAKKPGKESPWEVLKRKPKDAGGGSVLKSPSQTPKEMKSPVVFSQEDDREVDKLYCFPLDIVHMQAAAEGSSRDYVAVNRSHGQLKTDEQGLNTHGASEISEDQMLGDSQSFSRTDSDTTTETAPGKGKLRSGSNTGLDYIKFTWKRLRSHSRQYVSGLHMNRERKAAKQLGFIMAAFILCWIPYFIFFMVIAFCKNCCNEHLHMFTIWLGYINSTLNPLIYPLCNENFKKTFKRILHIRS
*A* < 5.00

----------
- subject.of.test: UniProt:P29274
- Sequence (P29274 whole entry): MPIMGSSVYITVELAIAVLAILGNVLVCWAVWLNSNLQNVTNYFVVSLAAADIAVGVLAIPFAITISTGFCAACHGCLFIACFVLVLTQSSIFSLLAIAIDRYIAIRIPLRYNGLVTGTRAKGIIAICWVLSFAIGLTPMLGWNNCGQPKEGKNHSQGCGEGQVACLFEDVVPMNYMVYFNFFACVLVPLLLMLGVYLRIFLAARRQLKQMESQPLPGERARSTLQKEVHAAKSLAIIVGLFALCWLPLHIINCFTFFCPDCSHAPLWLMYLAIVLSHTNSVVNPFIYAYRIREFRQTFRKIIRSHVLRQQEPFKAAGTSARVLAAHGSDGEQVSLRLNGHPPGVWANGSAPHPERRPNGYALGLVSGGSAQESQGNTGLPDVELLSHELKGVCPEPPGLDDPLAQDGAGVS
- measurement.notes: A2AAR functional assay, inhibition of NECA-elicited cAMP production in CHO-A2A cells
- Assay type: cell-based
- Parameters: expressed in transfected cells
- experimental.conditions: mean±SEM n=3
Could you please report measured Kb for the items listed next?
Report the value in nM with no unit label.

*Q* # lookup: Kb of CCCN(CCCCC(=O)Nc1nc2c(Br)cccc2s1)C1Cc2ccccc2C1 [Compound 27]
*A* 510

*Q* # lookup: Kb of CCCN(CCCCC(=O)Nc1nc2c(OC)ccc(C)c2s1)C1Cc2ccccc2C1 [Compound 29]
*A* 1900

*Q* # lookup: Kb of CN(CCCCC(=O)Nc1nc2c(Br)cccc2s1)C1Cc2ccccc2C1 [Compound 20]
*A* 320

*Q* # lookup: Kb of CCCN(CCCCC(=O)Nc1nc2c(OC)ccc(OC)c2s1)C1Cc2ccccc2C1 [Compound 30]
*A* 720

*Q* # lookup: Kb of CCCN(CCCCC(=O)Nc1nc2c(OC)cccc2s1)C1Cc2ccccc2C1 [Compound 26]
*A* 3600
